The measured values listed here are drawn from patent US11382946B2.

System: S. aureus
Type: cell-based, Staphylococcus aureus
Conditions: 18 h
Non-standard residues stand in square brackets, D forms with d. Residues, ends and D or L forms follow the SMILES beside them. *: point of attachment. Nle = CCCC[C@H](N)C(=O)O; Octanoyl = CCCCCCCC(=O)*
compounds and their reported Antimicrobial activity (IC50, μg/ml) S. aureus
Form entry: value (µg/mL) — number only.

compound="CCCCCCCC(=O)N[C@@H](CCCCN)C(=O)N[C@@H](Cc1ccccc1)C(=O)N[C@@H](CCCCN)C(=O)N[C@@H](Cc1c[nH]c2ccccc12)C(=O)N[C@@H](CCCC)C(=O)N[C@@H](Cc1ccc(O)cc1)C(=O)N[C@H](CCSC)C(N)=O [Peptide V3, Oct-KFKW-Nle-Ym-NH2] (Octanoyl-KFKW[Nle]Y[dM]-NH2)" endpoint_value=15.2

Turning now to a further compound:
Given item CCCCCCCC(=O)N[C@@H](CCCNC(=N)N)C(=O)N[C@@H](Cc1c[nH]c2ccccc12)C(=O)N[C@@H](CCCNC(=N)N)C(=O)N[C@@H](Cc1c[nH]c2ccccc12)C(=O)N[C@@H](CCCNC(=N)N)C(=O)N[C@@H](Cc1ccc(O)cc1)C(=O)N[C@@H](CCSC)C(=O)N[C@H](C(=O)N[C@H](CCSC)C(N)=O)C(C)C [Peptide V8, Oct-RWRWRYMVm-NH2] (Octanoyl-RWRWRYMV[dM]-NH2) , the value recorded as its Antimicrobial activity (IC50, μg/ml) S. aureus is 13.0
